Biological target: human orexin-2 receptor (Homo sapiens (Human), UniProt O43614)
Sequence (O43614 whole entry): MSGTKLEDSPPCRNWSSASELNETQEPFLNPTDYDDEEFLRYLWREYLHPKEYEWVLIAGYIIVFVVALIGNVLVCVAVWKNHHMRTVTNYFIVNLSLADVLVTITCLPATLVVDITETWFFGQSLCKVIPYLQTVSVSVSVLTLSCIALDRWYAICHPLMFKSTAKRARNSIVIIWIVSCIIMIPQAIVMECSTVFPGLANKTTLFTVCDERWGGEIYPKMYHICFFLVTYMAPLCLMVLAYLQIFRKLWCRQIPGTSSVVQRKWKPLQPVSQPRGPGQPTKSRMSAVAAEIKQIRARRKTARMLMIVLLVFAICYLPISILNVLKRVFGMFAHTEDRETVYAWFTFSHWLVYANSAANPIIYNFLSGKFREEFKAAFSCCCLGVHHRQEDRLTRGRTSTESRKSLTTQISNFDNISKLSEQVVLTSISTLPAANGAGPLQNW
Experiment: Human orexin 2 receptor radioligand binding ([3H]-EMPA competition)
Settings: HEK293 cells stably expressing human orexin-2 receptor; [3H]-EMPA 5 nM final; read-out: OR-2 Ki
OBSERVABLE: pKi
Reminder that pKi is minus the log10 of a molar concentration.

Please review the following examples before continuing.
Cc1cc(C)nc(N2C[C@@H]3CCN(C(=O)c4cccc(F)c4-n4nccn4)C[C@@H]32)c1 : 7.44
Cc1cc(C)nc(N2C[C@@H]3CCN(C(=O)c4nccnc4-c4ccccc4)C[C@@H]32)n1 : 6.56
Cc1cc(C)nc(N2C[C@@H]3CCN(C(=O)c4cccc(F)c4-c4ncccn4)C[C@@H]32)n1 : 7.25
COc1ccc(C(=O)N2CC[C@H]3CN(c4cc(C(F)(F)F)ccn4)[C@H]3C2)c(-n2nccn2)c1 : 6.52
Cc1cncc(N2C[C@@H]3CCN(C(=O)c4cccc(F)c4-n4nccn4)C[C@@H]32)n1 : 6.66

Tested on human orexin-2 receptor (Homo sapiens (Human), UniProt O43614): COc1ccc(C(=O)N2CC[C@H]3CN(c4nc(C)cc(C)n4)[C@H]3C2)c(-n2ccnn2)n1 . Observed pKi: 6.15

Tested on human orexin-2 receptor (Homo sapiens (Human), UniProt O43614): Cc1cncc(N2C[C@@H]3CCN(C(=O)c4ccc(F)cc4-n4nccn4)C[C@@H]32)n1 . Observed pKi: 6.31

Tested on human orexin-2 receptor (Homo sapiens (Human), UniProt O43614): O=C(c1ccccc1-c1cccs1)N1CC2CN(c3nccc(-c4ccccc4)n3)C2C1 (stereo not drawn) . Observed pKi: 7.03

Tested on human orexin-2 receptor (Homo sapiens (Human), UniProt O43614): Cc1ccc(C(F)(F)F)c(C(=O)N2CC[C@H]3CN(c4ccnc(-c5ccccc5)n4)[C@H]3C2)c1 . Observed pKi: 7.55
